molecular target: anthranilic acid synthetase encoded by pTrp 9-1 (Corynebacterium glutamicum, UniProt P06557)
Sequence (P06557 whole entry): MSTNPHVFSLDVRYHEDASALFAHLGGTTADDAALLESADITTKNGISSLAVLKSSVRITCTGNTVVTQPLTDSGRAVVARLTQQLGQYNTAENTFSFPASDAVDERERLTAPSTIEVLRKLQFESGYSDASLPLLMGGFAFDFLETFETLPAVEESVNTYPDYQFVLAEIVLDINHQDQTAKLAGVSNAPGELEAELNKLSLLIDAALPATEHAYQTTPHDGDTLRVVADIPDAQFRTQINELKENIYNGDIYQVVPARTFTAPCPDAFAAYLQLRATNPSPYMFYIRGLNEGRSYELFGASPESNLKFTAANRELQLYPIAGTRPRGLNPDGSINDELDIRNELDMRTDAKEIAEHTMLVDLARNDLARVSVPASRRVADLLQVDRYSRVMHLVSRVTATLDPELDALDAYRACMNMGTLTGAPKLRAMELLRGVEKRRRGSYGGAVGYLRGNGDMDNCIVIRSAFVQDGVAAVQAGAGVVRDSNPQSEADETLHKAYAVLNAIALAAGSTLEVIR
Sequence (P06558 whole entry, further chain): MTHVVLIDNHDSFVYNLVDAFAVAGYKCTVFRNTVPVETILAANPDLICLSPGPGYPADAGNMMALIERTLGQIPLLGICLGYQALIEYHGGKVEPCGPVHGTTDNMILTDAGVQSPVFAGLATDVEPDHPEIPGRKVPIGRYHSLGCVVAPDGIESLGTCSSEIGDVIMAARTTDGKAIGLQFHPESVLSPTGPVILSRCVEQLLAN
measuredAttribute: pIC50
To interpret pIC50, take it as minus log10 of a concentration measured in moles per litre.

[ask] Any idea what pIC50 was measured for "N[C@@H](Cc1c[nH]c2ccccc12)C(=O)O" ?
[reply] 5.22
